biological target: recombinant human 5-HT6 receptor (Homo sapiens); construct: expressed in transfected cells; membranes used; assay: Radioligand binding studies, competition for [3H]LSD binding in HEK293 cell membranes; settings: [3H]LSD (5 nM), membranes of HEK293 cells stably expressing recombinant human 5-HT6 receptor, pH 7.4, 37° C., 60 min; read-out: 5-HT6 affinity values (pKi) (converted)
Sequence (P50406 whole entry): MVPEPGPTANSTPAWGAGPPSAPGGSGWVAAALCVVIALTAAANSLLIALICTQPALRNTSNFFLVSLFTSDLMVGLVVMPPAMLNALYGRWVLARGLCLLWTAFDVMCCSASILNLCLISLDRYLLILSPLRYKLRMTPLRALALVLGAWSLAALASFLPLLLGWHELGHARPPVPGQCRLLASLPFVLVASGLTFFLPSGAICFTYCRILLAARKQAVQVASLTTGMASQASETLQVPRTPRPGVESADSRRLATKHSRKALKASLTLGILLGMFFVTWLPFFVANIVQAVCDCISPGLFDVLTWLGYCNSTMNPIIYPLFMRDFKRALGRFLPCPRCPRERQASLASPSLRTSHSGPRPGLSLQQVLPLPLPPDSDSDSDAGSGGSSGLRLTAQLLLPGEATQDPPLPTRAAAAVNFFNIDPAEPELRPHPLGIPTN
experimental readout: Ki (nM)

mol smiles	unit name	numeric result
O=S(=O)(c1ccccc1)c1c[nH]c2c(OCCN3CCCC3)cccc12	nM	20

a = O=S(=O)(c1ccccc1Cl)c1c[nH]c2c(OCCN3CCCC3)cccc12
b = O=S(=O)(c1ccc(Cl)c(Cl)c1)c1c[nH]c2c(OCCN3CCCC3)cccc12
// which entry has the larger Ki value, a or b ? I would appreciate it if you answered with the label of your choice.
b
